Biological target: AR protein expression in human prostate cancer cells LNCaP (Homo sapiens, UniProt P10275, T878A)
Sequence (P10275 1-920 T878A): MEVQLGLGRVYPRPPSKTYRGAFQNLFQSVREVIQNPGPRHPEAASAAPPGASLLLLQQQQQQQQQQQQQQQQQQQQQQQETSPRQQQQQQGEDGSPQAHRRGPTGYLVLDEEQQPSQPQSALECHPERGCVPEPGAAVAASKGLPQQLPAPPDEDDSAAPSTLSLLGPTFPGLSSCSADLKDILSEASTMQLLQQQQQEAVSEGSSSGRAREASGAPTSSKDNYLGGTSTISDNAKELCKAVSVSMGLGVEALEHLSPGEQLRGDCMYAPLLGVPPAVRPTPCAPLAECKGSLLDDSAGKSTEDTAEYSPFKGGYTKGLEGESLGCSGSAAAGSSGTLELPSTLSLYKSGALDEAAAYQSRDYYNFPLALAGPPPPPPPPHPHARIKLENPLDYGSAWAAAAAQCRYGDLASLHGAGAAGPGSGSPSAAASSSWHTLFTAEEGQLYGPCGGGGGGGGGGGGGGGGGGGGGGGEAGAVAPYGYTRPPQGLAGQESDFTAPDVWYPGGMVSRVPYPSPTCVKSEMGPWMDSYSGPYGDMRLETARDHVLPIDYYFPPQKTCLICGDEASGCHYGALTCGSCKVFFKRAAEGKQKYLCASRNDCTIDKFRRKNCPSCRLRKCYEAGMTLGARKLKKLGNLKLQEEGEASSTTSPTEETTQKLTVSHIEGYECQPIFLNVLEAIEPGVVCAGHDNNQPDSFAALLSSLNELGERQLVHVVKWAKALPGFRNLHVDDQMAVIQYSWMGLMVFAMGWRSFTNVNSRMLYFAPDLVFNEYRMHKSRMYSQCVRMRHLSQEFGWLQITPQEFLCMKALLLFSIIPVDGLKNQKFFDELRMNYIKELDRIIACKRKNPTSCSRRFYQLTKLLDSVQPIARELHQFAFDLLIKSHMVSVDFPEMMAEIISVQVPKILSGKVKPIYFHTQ
Experiment: Reduction of AR protein expression in LNCaP cells (Western blot, with DHT)
Assay type: cell-based
Conditions: 2.5 μmol/L compound, 48 h, 1 nM DHT
Counter-ions that a name gives are not always drawn.
MEASURE: AR reduction percentage (%)

COc1ccc(/C=C/C(=O)C2(C(=O)/C=C/c3ccc(OC)c(OC)c3)CCC(=O)CC2)cc1OC :: 0
COc1ccc(/C=C/C(=O)C2(C(=O)/C=C/c3ccc(OC)c(OC)c3)CCC(N3CCOCC3)CC2)cc1OC [Compound 12 hydrochloride] :: 86.2
COc1ccc(/C=C/C(=O)C2(C(=O)/C=C/c3ccc(OC)c(OC)c3)CCC(F)(F)CC2)cc1OC :: 57.5
COc1ccc(/C=C/C(=O)C2(C(=O)/C=C/c3ccc(OC)c(OC)c3)CCC(N3CCCCC3)CC2)cc1OC [Compound 19 hydrochloride] :: 81.4
